pEC50 values by entry
# Target of assay: human CB2 receptors (Homo sapiens (Human))
# Protocol: functional cAMP assay, CB2
# Experimental parameters: CHO cells expressing human CB2
# Experimental: The growth medium was exchanged with Krebs Ringer Bicarbonate buffer with 1 mM IBMX and incubated at 30° C. for 30 min. Compounds were added to a final assay volume of 100 μl and incubated for 30 min at 30° C. […] The time-resolved energy transfer is measured by a TRF reader (Evotec Technologies GmbH), equipped with a ND:YAG laser as excitation source. […] EC50 values were determined using Activity Base analysis (ID Business Solution, Limited).
# log scale: pEC50 equals minus log10 of the concentration in mol/L

Completed entries (count: 3):
CC(C)(C)c1nc(N2CCC3(COC3)C2)c2ncn(Cc3ccc(Cl)cc3)c2n1 | 6.30
CC(C)(C)Nc1nc(N2CC[C@H](O)C2)c2ncn(Cc3ccccc3C(F)(F)F)c2n1 | 8.14
CC(=O)N[C@H]1CCN(c2nc(C(C)(C)C)nc3c2ncn3Cc2cccc(Cl)c2)C1 | 6.51

Let's switch to this compound now.
**Query** Indicate its recorded pEC50; the compound in question is COCCn1cnc2c(N3CCC(O)C3)nc(C(C)(C)C)nc21 (stereo not shown)
**Result** 6.56

###

# Target of assay: human CB2 receptors (Homo sapiens (Human))
# Protocol: functional cAMP assay, CB2
# Experimental parameters: CHO cells expressing human CB2
Parameter measured: pEC50
# log scale: pEC50 equals minus log10 of the concentration in mol/L

**Query** Indicate its recorded pEC50; the compound in question is Cc1nonc1Cn1cnc2c(N3CCC(C)(O)C3)nc(OCC(C)(C)C)nc21 (centres unmarked)
**Result** 7.51

**Query** Indicate its recorded pEC50; the compound in question is CC(C)(C)c1nc(N2CCC(O)C2)c2ncn(Cc3cccc(Cl)c3)c2n1 (centres unmarked)
**Result** 7.23

###

# Target of assay: human CB2 receptors (Homo sapiens (Human), UniProt P34972)
# Sequence (P34972 whole entry): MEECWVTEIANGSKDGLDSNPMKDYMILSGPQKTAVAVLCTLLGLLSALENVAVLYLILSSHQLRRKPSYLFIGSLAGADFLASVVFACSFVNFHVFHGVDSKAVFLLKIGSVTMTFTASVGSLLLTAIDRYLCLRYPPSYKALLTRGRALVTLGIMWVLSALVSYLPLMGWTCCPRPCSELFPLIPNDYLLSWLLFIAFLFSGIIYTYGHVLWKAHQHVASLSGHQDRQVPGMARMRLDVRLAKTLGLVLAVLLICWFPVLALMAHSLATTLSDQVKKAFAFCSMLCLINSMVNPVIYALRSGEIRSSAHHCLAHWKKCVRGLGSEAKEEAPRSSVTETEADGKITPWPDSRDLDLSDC
# Protocol: functional cAMP assay, CB2
# Experimental parameters: CHO cells expressing human CB2
Response field class: string, computed from recorded EC50 by ranges low class = under 20 nM, middle class = from 20 nM up to 200 nM, high class = 200 nM and over

COc1ccc(Cn2cnc3c(N4CCC(O)C4)nc(C(C)(C)C)nc32)cc1 (centres unmarked) | middle class
CC(C)(C)COc1nc(N2CCC(C)(O)C2)c2ncn(Cc3ncccc3Cl)c2n1 (centres unmarked) | middle class
CC(C)(C)c1nc(N2CCC(F)(F)C2)c2ncn(Cc3ccccc3Cl)c2n1 | low class

**Query** Which EC50 band matches CC(C)(C)c1nc(N2CC[C@H](O)C2)c2ncn(Cc3n[nH]cc3C(F)(F)F)c2n1 ?
**Result** low class

**Query** Which EC50 band matches Cc1noc(Cn2cnc3c(N4CC[C@H](O)C4)nc(C(C)(C)C)nc32)n1 ?
**Result** high class

**Query** Which EC50 band matches CCn1cnc2c(N3CCC(O)C3)nc(C(C)(C)C)nc21 (centres unmarked) ?
**Result** high class

**Query** Which EC50 band matches CC(C)(C)c1nc(N2CCC(O)C2)c2ncn(Cc3ccccc3Cl)c2n1 (centres unmarked) ?
**Result** low class

###

# Target of assay: UniProt:P34972
# Protocol: functional cAMP assay, CB2
# Experimental parameters: CHO cells expressing human CB2
pEC50 values by entry
# log scale: pEC50 equals minus log10 of the concentration in mol/L

Completed entries (count: 5):
CC(C)(C)c1nc(N2CCC3(COC3)C2)c2ncn(Cc3ccccc3C(F)(F)F)c2n1 | 7.78
CC(C)(C)c1nc(N2CCC(F)(F)C2)c2ncn(C3CS(=O)(=O)C3)c2n1 | 7.85
CC(C)(C)c1nc(N2CC[C@H](O)C2)c2ncn(CCC(F)(F)F)c2n1 | 6.64
CC(C)(C)c1nc(N2CCC(O)C2)c2ncn(CCC(F)(F)F)c2n1 (centres unmarked) | 7.30
Cc1noc(Cn2cnc3c(N4CC(F)(F)C(F)(F)C4)nc(C(C)(C)C)nc32)n1 | 6.75

**Query** Indicate its recorded pEC50; the compound in question is Cn1nnnc1Cn1cnc2c(N3CCC(O)C3)nc(C(C)(C)C)nc21 (centres unmarked)
**Result** 6.52

**Query** Indicate its recorded pEC50; the compound in question is CC(C)(C)c1nc(N2CCC3(COC3)C2)c2ncn(CCC(F)(F)F)c2n1
**Result** 6.24

**Query** Indicate its recorded pEC50; the compound in question is CC(C)(C)c1nc(N2CCC[C@@H]2CO)c2ncn(Cc3ncccc3Cl)c2n1
**Result** 8.37

###

# Target of assay: human CB2 receptors (Homo sapiens (Human), UniProt P34972)
# Protocol: functional cAMP assay, CB2
# Experimental parameters: CHO cells expressing human CB2
Parameter measured: pEC50
# log scale: pEC50 equals minus log10 of the concentration in mol/L

Completed entries (count: 8):
CC(C)(C)c1nc(N2CCC(F)(F)C2)c2ncn(CC(=O)c3ccccn3)c2n1 [Example 24] | 7.16
CC1(O)CCN(c2nc(C(C)(C)C)nc3c2ncn3Cc2ccccc2C(F)(F)F)C1 (stereo not drawn) [Example 67] | 8.05
Cc1nonc1Cn1cnc2c(N3CCC(F)(F)C3)nc(C(C)(C)C)nc21 [Example 16] | 8.22
CC(C)(C)c1nc(N2CCC3(COC3)C2)c2ncn(Cc3cccnc3Cl)c2n1 [Example 61] | 7.53
Cc1nonc1Cn1cnc2c(N3CCC4(COC4)C3)nc(C(C)(C)C)nc21 [Example 62] | 6.84
Cc1nonc1Cn1cnc2c(N3CCC(O)C3)nc(C(C)(C)C)nc21 (stereo not drawn) [Example 43] | 7.78
CC(C)(C)c1nc(N2CCC(F)(F)C2)c2ncn(Cc3ccccc3C(F)(F)F)c2n1 [Example 5] | 9.15
Cn1nnnc1Cn1cnc2c(N3CCC(F)(F)C3)nc(C(C)(C)C)nc21 [Example 14] | 7.64

Let's switch to this compound now.
**Query** Indicate its recorded pEC50; the compound in question is CC(C)(C)c1nc(N2CCC(O)C2)c2ncn(Cc3ncccc3Cl)c2n1 (stereo not drawn) [Example 32]
**Result** 8.47

###

# Target of assay: human CB2 receptors (Homo sapiens (Human), UniProt P34972)
# Protocol: functional cAMP assay, CB2
# Experimental parameters: CHO cells expressing human CB2
pEC50 values by entry
# log scale: pEC50 equals minus log10 of the concentration in mol/L

Completed entries (count: 3):
CC(C)(C)Nc1nc(N2CC[C@H](O)C2)c2ncn(Cc3ccccc3Cl)c2n1 | 7.92
CC(C)(C)c1nc(N2CCC(F)(F)C2)c2ncn(Cc3nnnn3C3CC3)c2n1 | 8.04
CC1(O)CCN(c2nc(C(C)(C)C)nc3c2ncn3CCC(F)(F)F)C1 (centres unmarked) | 6.87

**Query** Indicate its recorded pEC50; the compound in question is CC(C)(C)Nc1nc(N2CC[C@H](O)C2)c2ncn(CCC(F)(F)F)c2n1
**Result** 6.67

**Query** Indicate its recorded pEC50; the compound in question is CC(C)(C)c1nc(N2CCC3(COC3)C2)c2ncn(Cc3ncccc3Cl)c2n1
**Result** 6.80

**Query** Indicate its recorded pEC50; the compound in question is CC(C)(C)c1nc(N2CCC(F)(F)C2)c2ncn(Cc3cccnc3Cl)c2n1
**Result** 9.30

**Query** Indicate its recorded pEC50; the compound in question is CC(C)(C)Nc1nc(N2CCC(F)(F)C2)c2ncn(Cc3ccccc3S(C)(=O)=O)c2n1
**Result** 7.34

**Query** Indicate its recorded pEC50; the compound in question is CCn1cnc2c(N3CCC(F)(F)C3)nc(C(C)(C)C)nc21
**Result** 7.31

**Query** Indicate its recorded pEC50; the compound in question is CC1(O)CCN(c2nc(NC(C)(C)C)nc3c2ncn3Cc2ccccc2Cl)C1 (centres unmarked)
**Result** 6.97

**Query** Indicate its recorded pEC50; the compound in question is CC(C)(C)c1nc(N2CCC3(COC3)C2)c2ncn(Cc3ccccc3S(C)(=O)=O)c2n1
**Result** 6.76

**Query** Indicate its recorded pEC50; the compound in question is CC1(O)CCN(c2nc(C(C)(C)C)nc3c2ncn3Cc2ccccc2Cl)C1 (centres unmarked)
**Result** 7.87

**Query** Indicate its recorded pEC50; the compound in question is CC(C)(C)c1nc(N2CC(F)(F)C(F)(F)C2)c2ncn(CCC(F)(F)F)c2n1
**Result** 7.05

**Query** Indicate its recorded pEC50; the compound in question is Cc1noc(Cn2cnc3c(N4CCC(F)(F)C4)nc(OCC(C)(C)C)nc32)n1
**Result** 6.96

**Query** Indicate its recorded pEC50; the compound in question is CC(C)(C)Nc1nc(N2CCC(F)(F)C2)c2ncn(CCC(F)(F)F)c2n1
**Result** 7.74

**Query** Indicate its recorded pEC50; the compound in question is CC1(O)CCN(c2nc(C(C)(C)C)nc3c2ncn3Cc2cccc(Cl)c2)C1 (centres unmarked)
**Result** 7.04

**Query** Indicate its recorded pEC50; the compound in question is Cc1nnc(Cn2cnc3c(N4CCC(F)(F)C4)nc(OCC(C)(C)C)nc32)o1
**Result** 6.48

**Query** Indicate its recorded pEC50; the compound in question is CC(C)(C)c1nc(N2CC[C@H](O)C2)c2ncn(Cc3cccnc3Cl)c2n1
**Result** 8.77

Provenance of the data: patent US9505762B2
